Items are presented alongside their recorded pEC50.
target: human κ opioid receptors (Homo sapiens, UniProt P41145); test: Opioid receptor function test (Lance Ultra cAMP kit, agonist activity); conditions: CHO cells expressing human κ opioid receptors, 10 μM forskolin, 30 minutes
Sequence (P41145 whole entry): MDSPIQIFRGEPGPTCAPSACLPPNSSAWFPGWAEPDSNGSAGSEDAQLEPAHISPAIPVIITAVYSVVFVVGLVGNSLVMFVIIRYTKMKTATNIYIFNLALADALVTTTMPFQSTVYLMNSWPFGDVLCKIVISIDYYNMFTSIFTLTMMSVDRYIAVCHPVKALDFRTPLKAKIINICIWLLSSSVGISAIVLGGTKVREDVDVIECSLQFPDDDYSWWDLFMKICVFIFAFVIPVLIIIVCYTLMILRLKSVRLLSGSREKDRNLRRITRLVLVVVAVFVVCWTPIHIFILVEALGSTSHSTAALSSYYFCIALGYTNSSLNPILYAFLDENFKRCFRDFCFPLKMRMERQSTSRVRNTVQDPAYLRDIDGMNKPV
Expect pEC50 as a plain number equal to -log10 of the molar concentration.

Below, each entry is followed by its recorded pEC50 result.
Memo: Cc1cnn(CCN2CC[C@]34CCN(CC5CC5)[C@H](Cc5cc(Br)c(O)cc53)[C@]4(O)CC2)c1 [Example 263] , reported pEC50: 9.05

pEC50 measured on Oc1ccc2c(c1)[C@@]13CCN(CCn4cc(C5CC5)cn4)CC[C@@]1(O)[C@@H](C2)N(CC1CC1)CC3 [Example 183] = 10.52

Recorded pEC50 (compound NC(=O)c1ccc2c(c1)[C@@]13CCN(C(=O)Cc4n[nH]c5ccccc45)CC[C@@]1(O)[C@@H](C2)N(CC1CC1)CC3 [Example 265] ): 9.92

Others:
In plain terms, Oc1ccc2c(c1)[C@@]13CCN(CCn4nccn4)CC[C@@]1(O)[C@@H](C2)N(CC1CC1)CC3 [Example 66] has a documented pEC50 of 9.85
